Assay Explanation: qHTS RealTime-Glo MT Cell Viability Assay in HEK293 cells - 32 hour (AID 1224868); note: top concentration of the series differs between compounds; nearly all actives have a fitted effect of over 50% in size
Condition Notes: RealTime-Glo luminescence; series mostly up to 76.8 µM
Records with an inconclusive call do not appear. Calls of active or inactive are those of the source. Calls come from the whole dose curve; as a rule, active = well fitted cell-killing curve with a large enough effect in the repeat runs; inconclusive = weak or mixed curves, or effect the other way; inactive = flat fitted curve, though single readings scatter.
Observable: outcome

As a guide, the following entries are already answered.
| Sample Smiles | Val |
| --- | --- |
| CC(C)(C)OOC(=O)c1ccccc1 | inactive |
| [N-]=[N+]=[N-] | inactive |
| Cc1ccccc1O | inactive |
| C1CN2CCN1CC2 | inactive |
| O=NN1CCCCCCC1 | inactive |

Next item in the queue.
Request: Using the record for `C=CC(N)=O` , report its outcome.
Response: inactive

---

Assay Explanation: qHTS assay to identify small molecule agonists of the retinoic acid receptor (RAR) signaling pathway (AID 1159553)
Condition Notes: C3RL4 RARE luciferase reporter, agonist, 6 h
Inconclusive results are not listed. Active and inactive are the calls of the source. Calls come from the whole dose curve; as a rule, active = well fitted activation curve with a large enough effect in the repeat runs; inconclusive = weak or mixed curves, or effect the other way; inactive = no such curve, though single readings can be large or run the other way.
Could you please pick one outcome from this set? active, inactive

Request: What call does the record list for `CNC(=O)Oc1ccccc1OC(C)C` ?
Response: inactive

Request: Let us now turn to `Cc1cccc([N+](=O)[O-])c1`
Response: inactive

Request: Now the same for `CCOP(=S)(OCC)SCCSCC`
Response: inactive

Request: What about `OCCN(CCO)CCO` ?
Response: inactive

Request: # iterate: `CC(C)(C)OOC(=O)c1ccccc1`
Response: inactive

Request: Another compound to check: `Clc1cccc(Cl)c1Cl`
Response: inactive

Request: Try this compound next: `COCCl`
Response: inactive

Request: And the next one, `CC(=O)C=C(C)C` ?
Response: inactive

Request: Cool, now `C#CC(C)(C)NC(=O)c1cc(Cl)cc(Cl)c1`
Response: inactive

Request: # repeat for `CN=C=S`
Response: inactive

Request: Try the compound `O=NN1CCCCCCC1`
Response: inactive

Request: And the next one, CC(Oc1ccc(Cl)cc1Cl)C(=O)O (configuration not stated) ?
Response: inactive

Request: Similarly, `CC(C)N1C(=O)c2ccccc2NS1(=O)=O` ?
Response: inactive

Request: # repeat for `C=CC(N)=O`
Response: inactive

Request: Moving on to the next compound: `CON(C)C(=O)Nc1ccc(Cl)c(Cl)c1`
Response: active

Request: Same again, this time with `CC(C)OC(=O)Nc1cccc(Cl)c1`
Response: active

Request: Param item: `Cc1cc(Cl)ccc1O`
Response: inactive

---

Assay Explanation: qHTS RealTime-Glo MT Cell Viability Assay in HepG2 cells - 32 hour (AID 1224877); note: nearly all actives have a fitted effect of over 55% in size
Condition Notes: RealTime-Glo luminescence; series mostly up to 76.8 µM
Results filed as inconclusive are left out. Active and inactive are the calls of the source. Calls follow the shape of the dose curve; as a rule, active = well fitted cell-killing curve with a large enough effect in the repeat runs; inconclusive = weak or mixed curves; inactive = flat fitted curve, though single readings scatter.

| Molecule | outcome |
| --- | --- |
| CN(N=O)c1ccccc1 | inactive |
| CC(Br)C(=O)O (stereo not drawn) | inactive |
| CCCCN(CCCC)SN(C)C(=O)Oc1cccc2c1OC(C)(C)C2 | inactive |

---

Assay Explanation: qHTS assay for identifying genotoxic compounds that show differential cytotoxicity against isogenic chicken DT40 cell lines with known DNA damage response pathways - Rev3 mutant cell line (AID 743014); note: nearly all actives have a fitted effect of over 55% in size
Condition Notes: chicken DT40 Rev3-/- viability, CellTiter-Glo, 40 h; series mostly up to 68.4 µM
Records with an inconclusive call do not appear. Activity calls are given as the source filed them. Calls follow the shape of the dose curve; as a rule, active = well fitted cell-killing curve with a large enough effect in the repeat runs; inconclusive = weak or mixed curves, or effect the other way; inactive = no such curve, though single readings can be large or run the other way.
Valid outcomes are listed here; reply with one: t = active, f = inactive

Request: What call does the record list for `C#CCN(C)[C@H](C)Cc1ccccc1` ?
Response: f

Request: Record: `O=C(O)c1ccccn1`
Response: f

Request: Same thing, different compound: `CN1C(=O)CN=C(c2ccccc2)c2cc(Cl)ccc21`
Response: f

Request: // same read-out, input: `C=C(C)CCl`
Response: f

Request: Also CC(Oc1ccc(Cl)cc1Cl)C(=O)O (stereo not given) , if possible.
Response: f

Request: Same lookup for `CC(C)(Cl)Cl` , please.
Response: f

Request: Another compound to look at: `CC(C)OC(=O)Nc1ccccc1`
Response: f

Request: Likewise for `Cc1ccccc1O` ?
Response: f

Request: Record: `C#CC(C)(C)NC(=O)c1cc(Cl)cc(Cl)c1`
Response: t

Request: What do you have for `CN=C=S` ?
Response: f

Request: And `C=CCO` ?
Response: f

Request: Same question for `CCC[N+](=O)[O-]` please.
Response: f

Request: Now give it for `CC(C)(C)OOC(=O)c1ccccc1` too.
Response: f

Request: Also check `CC(C)C#N`
Response: f

Request: Follow-up entry: `Nc1ccc(Oc2ccc(N)cc2)cc1`
Response: f

Request: Also check O=C(NC(=O)c1c(F)cccc1F)Nc1cc(Cl)c(OC(F)(F)C(F)C(F)(F)F)cc1Cl (stereo not given)
Response: t

Request: Now give it for `CCOP(=S)(OCC)Oc1cnc2ccccc2n1` too.
Response: t

Request: Next: `O=S(=O)(c1ccc(O)cc1)c1ccc(O)cc1`
Response: f

Request: # repeat for `COC(=O)c1ccccc1C(=O)OC`
Response: f

Request: Field entry: `CN(C)[C@@H]1C(=O)C(C(N)=O)=C(O)[C@@]2(O)C(=O)C3=C(O)c4c(O)cccc4[C@@](C)(O)[C@H]3C[C@@H]12`
Response: f

Request: Please do the same for `COc1ccc2c3c1O[C@H]1[C@@H](O)C=C[C@H]4[C@@H](C2)N(C)CC[C@@]341` as well.
Response: f

Request: Cool, now `ClCCBr`
Response: f

Request: One more compound: `O=c1n(Cl)c(=O)n(Cl)c(=O)n1Cl`
Response: f

Request: And `CC(C)N1C(=O)c2ccccc2NS1(=O)=O` ?
Response: f

Request: Further, for `CCOC(=O)c1ccccc1C(=O)OCC` ?
Response: f

Request: Could you do the same for `CC(C)NC(=O)N1CC(=O)N(c2cc(Cl)cc(Cl)c2)C1=O` , please?
Response: t

Request: Item: `O=c1[nH]c2ccccc2c(=O)o1`
Response: f

Request: Continue with `O=c1[nH]c(=O)[nH]c(=O)[nH]1`
Response: f

Request: Queued: `c1cc2c3c(cccc3c1)CC2`
Response: f

Request: Now consider `CN(C)CCO` .
Response: f

---

System Tested: Nuclear receptor subfamily 1 group I member 2 (Homo sapiens) (UniProt O75469)
Sequence (O75469 whole entry, looked up): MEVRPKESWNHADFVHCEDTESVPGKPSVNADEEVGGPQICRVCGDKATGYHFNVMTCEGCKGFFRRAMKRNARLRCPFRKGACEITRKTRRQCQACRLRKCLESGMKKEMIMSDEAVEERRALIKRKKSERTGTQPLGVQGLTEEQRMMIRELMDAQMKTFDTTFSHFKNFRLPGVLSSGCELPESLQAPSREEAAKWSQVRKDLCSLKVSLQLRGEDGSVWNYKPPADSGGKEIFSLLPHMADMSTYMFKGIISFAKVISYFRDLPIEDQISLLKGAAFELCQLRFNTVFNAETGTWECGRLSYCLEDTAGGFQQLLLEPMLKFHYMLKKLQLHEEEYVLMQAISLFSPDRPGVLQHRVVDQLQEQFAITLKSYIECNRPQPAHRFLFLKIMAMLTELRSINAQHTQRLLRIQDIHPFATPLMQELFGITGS
Assay Explanation: Human pregnane X receptor (PXR) small molecule agonists, qHTS assay (AID 1346982); note: nearly all actives have a fitted effect of over 35% in size
Condition Notes: PXR-Luc HepG2, CYP3A4 luciferase reporter, 24 h; series mostly up to 92.4 µM
Records with an inconclusive call do not appear. Calls of active or inactive are those of the source. Calls follow the shape of the dose curve; as a rule, active = well fitted activation curve with a large enough effect in the repeat runs; inconclusive = weak or mixed curves; inactive = no such curve, though single readings can be large or run the other way.
// allowed return values: active, inactive

Request: Dear colleague, could you share the recorded outcome for `O=NN1CCCCCCC1` when you have a moment?
Response: inactive

Request: What would you report for `O=NN1CCCC1` ?
Response: inactive

Request: Next: `O=S(=O)(c1ccc(Cl)cc1)c1cc(Cl)c(Cl)cc1Cl`
Response: active

Request: Consider next the compound `O=c1n(Cl)c(=O)n(Cl)c(=O)n1Cl` in the same way.
Response: inactive

Request: Okay, and `CC(C)(Cl)Cl` ?
Response: inactive

Request: Repeat with `c1ccc2c(c1)Oc1ccccc1O2`
Response: inactive

Request: Repeat for the following compound: `C=CC(N)=O`
Response: inactive

Request: Next up: `CCOC(=O)c1ccccc1C(=O)OCC`
Response: inactive

Request: Next up: `CCC[N+](=O)[O-]`
Response: inactive

---

Assay Explanation: qHTS RealTime-Glo MT Cell Viability Assay in HepG2 cells - 24 hour (AID 1224867); note: nearly all actives have a fitted effect of over 50% in size
Condition Notes: RealTime-Glo luminescence; series mostly up to 76.8 µM
From the text: U.S. Tox21 Program National Center for Advancing Translational Sciences [NCATS] NIH Chemical Genomics Center [NCGC] U.S. Environmental Protection Agency [EPA] National Institutes of Environmental Health Sciences [NIEHS] National Toxicology Program [NTP] U.S. Food and Drug Administration [FDA] Tox21 Assay Overview: Measure of cell viability is critical in the cell-base assay. Analysis of cell viability is necessary for the characterization of cell responses to cytotoxic drugs and environmental stress. […]
Results filed as inconclusive are left out. The source made the active and inactive calls. Calls follow the shape of the dose curve; as a rule, active = well fitted cell-killing curve with a large enough effect in the repeat runs; inconclusive = weak or mixed curves; inactive = flat fitted curve, though single readings scatter.
Observable: outcome

| Sample Smiles | outcome |
| --- | --- |
| OC(O)C(Cl)(Cl)Cl | inactive |
| O=NN1CCCCCCC1 | inactive |
| COc1ccc2c3c1O[C@H]1[C@@H](O)C=C[C@H]4[C@@H](C2)N(C)CC[C@@]341 | inactive |
| c1ccc2c(c1)oc1ccccc12 | inactive |

Request: Item `O=NN1CCCC1` has what recorded outcome?
Response: inactive

Request: Repeat with `C=CCO`
Response: inactive

Request: How about `CCCN(CCC)c1c([N+](=O)[O-])cc(C(F)(F)F)cc1[N+](=O)[O-]` ?
Response: inactive
